Tested on: cytoplasmic HBV-DNA replication in AML12HBV10 cells
protocol notes: Antiviral assay in AML12HBV10 cells
Assay type: cell-based, hepatitis B virus
measurement setup: AML12HBV10 cells; SAR statement of the text
endpoint: Anti-HBV potency compared with 27 (58031), in words

molecule	study system	observed value
O=C1CCN(C(=O)Nc2cc(F)c(F)c(F)c2)CN1Cc1ccc(F)cc1F [Compound 40]	cytoplasmic HBV-DNA replication in AML12HBV10 cells	reduced the activities
O=C1CCN(C(=O)Nc2cc(Cl)c(F)c(Cl)c2)CN1Cc1ccc(F)cc1F [Compound 42]	cytoplasmic HBV-DNA replication in AML12HBV10 cells	reduced the activities
O=C1CCN(C(=O)Nc2cc(F)c(F)cc2Cl)CN1Cc1ccc(F)cc1F [Compound 41]	cytoplasmic HBV-DNA replication in AML12HBV10 cells	reduced the activities

###

System: HBV replication in HepDES19 cells
protocol notes: Antiviral assay in HepDES19 cells
Type: cell-based
measurement setup: Hepatitis B virus, HepDES19, read-out: EC50, inhibition of HBV-DNA replication
pEC50: −log10 of the molar value.
endpoint: pEC50

compound	endpoint	observed value
O=C1CCN(C(=O)Nc2ccc(F)c(Cl)c2)CN1Cc1ccc(F)cc1F [Compound 27]	pEC50	6.08

###

Tested on: cytoplasmic HBV-DNA replication in AML12HBV10 cells
protocol notes: Antiviral assay in AML12HBV10 cells
Type: cell-based, hepatitis B virus
measurement setup: Hepatitis B virus, AML12HBV10, 48 h, read-out: EC50 (50% inhibitory concentration of cytoplasmic HBV-DNA replication)
pEC50: −log10 of the molar value.
endpoint: pEC50

smi	study system	endpoint	observed value
O=C1CCN(C(=O)Nc2ccc(F)c(Cl)c2)CN1Cc1ccc(F)cc1F	cytoplasmic HBV-DNA replication in AML12HBV10 cells	pEC50	6.28
O=C1CCN(C(=O)Nc2ccc(F)c(Cl)c2)CN1Cc1ccc(F)cc1	cytoplasmic HBV-DNA replication in AML12HBV10 cells	pEC50	5.69
O=C1CCN(C(=O)Nc2ccc(F)c(Cl)c2)CN1CCc1ccc(F)cc1	cytoplasmic HBV-DNA replication in AML12HBV10 cells	pEC50	5.29

###

System: cytoplasmic HBV-DNA replication in AML12HBV10 cells
protocol notes: Antiviral assay in AML12HBV10 cells
Assay type: cell-based, hepatitis B virus
measurement setup: AML12HBV10 cells; SAR statement of the text
endpoint: Anti-HBV potency compared with 27 (58031), in words

molecule	study system	observed value
O=C1CCN(C(=O)Nc2ccc(F)c(Cl)c2)CN1Cc1ccncc1	cytoplasmic HBV-DNA replication in AML12HBV10 cells	less active
O=C1CC(Cc2cc(F)c(F)cc2F)N(C(=O)Nc2ccc(F)c(Cl)c2)CN1Cc1ccc(F)cc1F (stereo not drawn)	cytoplasmic HBV-DNA replication in AML12HBV10 cells	deteriorated the potency
O=C1CCN(C(=O)Nc2ccc(F)c(C(F)F)c2)CN1Cc1ccc(F)cc1F	cytoplasmic HBV-DNA replication in AML12HBV10 cells	comparable activities
O=C1CC(CN2CCC(F)(F)C2)N(C(=O)Nc2ccc(F)c(Cl)c2)CN1Cc1ccc(F)cc1F (stereo not drawn)	cytoplasmic HBV-DNA replication in AML12HBV10 cells	deteriorated the potency
O=C1CC(CN2CCC(F)(F)CC2)N(C(=O)Nc2ccc(F)c(Cl)c2)CN1Cc1ccc(F)cc1F (stereo not drawn)	cytoplasmic HBV-DNA replication in AML12HBV10 cells	deteriorated the potency
O=C1CCN(C(=O)Nc2ccc(F)c(Cl)c2)CN1Cc1ccccn1	cytoplasmic HBV-DNA replication in AML12HBV10 cells	less active
O=C1CCN(C(=O)Nc2cccc(Cl)c2)CN1Cc1ccc(F)cc1F	cytoplasmic HBV-DNA replication in AML12HBV10 cells	comparable activities
